- Target under test: UniProt P51956
- Sequence (P51956 whole entry, looked up): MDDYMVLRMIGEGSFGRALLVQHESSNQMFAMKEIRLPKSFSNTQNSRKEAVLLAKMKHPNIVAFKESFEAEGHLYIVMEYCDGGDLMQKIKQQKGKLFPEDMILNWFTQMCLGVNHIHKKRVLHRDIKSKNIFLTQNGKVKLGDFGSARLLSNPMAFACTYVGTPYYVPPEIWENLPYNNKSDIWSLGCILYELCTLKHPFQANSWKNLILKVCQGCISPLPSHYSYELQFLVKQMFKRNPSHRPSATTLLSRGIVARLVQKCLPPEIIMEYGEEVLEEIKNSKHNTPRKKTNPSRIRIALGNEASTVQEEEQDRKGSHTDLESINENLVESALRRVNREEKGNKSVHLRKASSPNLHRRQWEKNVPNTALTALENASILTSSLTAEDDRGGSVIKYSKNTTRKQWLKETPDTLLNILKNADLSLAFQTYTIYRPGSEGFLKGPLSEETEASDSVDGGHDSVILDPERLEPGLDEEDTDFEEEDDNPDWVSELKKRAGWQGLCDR
- Protocol details: KINOMEscan competition binding
- Condition summary: compound 10.0 µM
Observation type: kinase still bound, per cent of control (%)
Please respond with the number in % and leave the unit unwritten.

{"Query smiles": "COc1ccc(N(C(=O)Oc2c(C)cccc2C)c2ccnc(Nc3ccc(N4CCN(C)CC4)cc3)n2)c(OC)c1", "Target under test": "UniProt P51956", "kinase still bound, per cent of control / %": 100}
{"Query smiles": "CCN1CCN(C(=O)Cc2ccc(Nc3ncc(F)c(Nc4ccc(C(=O)Nc5ccccc5Cl)cc4)n3)cc2)CC1", "Target under test": "UniProt P51956", "kinase still bound, per cent of control / %": 60}
{"Query smiles": "O=c1cc(N2CCOCC2)oc2c(-c3cccc4c3sc3ccccc34)cccc12", "Target under test": "UniProt P51956", "kinase still bound, per cent of control / %": 100}

Input: Would you mind telling me what kinase still bound, per cent of control value was observed for `NC(=O)Nc1cc(-c2cccc(F)c2)sc1C(=O)N[C@@H]1CCCNC1` ?
Output: 43

Input: Tell me the measured kinase still bound, per cent of control of `C[C@@H](Oc1cc(-c2cnn(C3CCNCC3)c2)cnc1N)c1c(Cl)ccc(F)c1Cl` , please.
Output: 100
